# pKi per record follows
target_system: PKC delta kinase (Homo sapiens, UniProt Q05655)
Sequence (Q05655 whole entry): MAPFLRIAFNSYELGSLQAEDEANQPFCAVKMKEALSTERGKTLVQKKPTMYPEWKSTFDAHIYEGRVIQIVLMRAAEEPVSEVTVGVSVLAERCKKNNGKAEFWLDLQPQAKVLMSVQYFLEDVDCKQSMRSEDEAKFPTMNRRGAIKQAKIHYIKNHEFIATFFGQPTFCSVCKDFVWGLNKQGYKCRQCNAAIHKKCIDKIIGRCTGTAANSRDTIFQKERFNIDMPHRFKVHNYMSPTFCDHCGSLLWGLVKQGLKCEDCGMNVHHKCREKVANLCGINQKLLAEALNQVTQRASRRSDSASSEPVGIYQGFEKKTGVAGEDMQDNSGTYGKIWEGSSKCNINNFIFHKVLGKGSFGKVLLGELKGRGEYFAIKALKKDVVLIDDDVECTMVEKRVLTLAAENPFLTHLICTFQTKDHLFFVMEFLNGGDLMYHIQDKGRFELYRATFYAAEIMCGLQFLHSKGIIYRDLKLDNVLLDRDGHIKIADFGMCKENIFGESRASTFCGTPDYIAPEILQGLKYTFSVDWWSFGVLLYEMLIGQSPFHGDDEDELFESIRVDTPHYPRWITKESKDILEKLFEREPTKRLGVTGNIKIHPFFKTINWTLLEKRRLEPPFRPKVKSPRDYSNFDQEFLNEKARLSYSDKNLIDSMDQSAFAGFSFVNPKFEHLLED
assay_info: PKC delta kinase inhibition, coupled-enzyme NADH absorbance assay
particulars: 46 nM PKC delta kinase, 150 μM ATP, 30° C.
pKi: −log10 of the molar value.

Sample records with pKi:
compound="CCC(C)(CN)c1csc(-c2ccnc3[nH]nc(Cl)c23)n1 (centres unmarked)" target_system="PKC delta kinase (Homo sapiens, UniProt Q05655)" readout_type=pKi reported_measurement="> 7.30"
compound="CCC(C)(CN)c1ccsc1-c1ccnc2[nH]ncc12 (centres unmarked)" target_system="PKC delta kinase (Homo sapiens, UniProt Q05655)" readout_type=pKi reported_measurement="< 5.70"
compound=NCCn1cc(-c2ccnc3[nH]ncc23)cn1 target_system="PKC delta kinase (Homo sapiens, UniProt Q05655)" readout_type=pKi reported_measurement="> 5.55"
compound="CCC(C)(C#N)c1csc(-c2ccnc3[nH]ncc23)n1 (centres unmarked)" target_system="PKC delta kinase (Homo sapiens, UniProt Q05655)" readout_type=pKi reported_measurement="> 6.30"

Q: Provide the documented pKi with PKC delta kinase (Homo sapiens, UniProt Q05655) as the system for CCC(C#N)(CC)c1csc(-c2ccnc3[nH]ncc23)n1
Ans: > 6.30

====

Record set of Ki for target or system PKC alpha kinase (Homo sapiens).

Sample records with Ki:
compound="CCC(CN)c1csc(-c2ccnc3[nH]ncc23)n1 (stereo not shown)" readout_type=Ki reported_measurement="> 1250 nM"
compound=NCCn1cc(-c2ccnc3[nH]ncc23)cn1 readout_type=Ki reported_measurement="> 1250 nM"
compound="CCC(C)(C#N)c1csc(-c2ccnc3[nH]nc(Cl)c23)n1 (stereo not shown)" readout_type=Ki reported_measurement="< 2800 nM"

Q: Request the reported Ki associated with CCC(C#N)c1csc(-c2ccnc3[nH]ncc23)n1 (stereo not shown)
Ans: < 500 nM

Q: Field entry: CCC(C)(C#N)c1csc(-c2ccnc3[nH]ncc23)n1 (stereo not shown)
Ans: < 2800 nM

Q: Field entry: CCC(C#N)n1cc(-c2ccnc3[nH]ncc23)cn1 (stereo not shown)
Ans: > 1250 nM

Q: Field entry: CCC(C)(CN)c1csc(-c2ccnc3[nH]ncc23)n1 (stereo not shown)
Ans: < 2800 nM

Q: Field entry: CC(C)(C#N)c1csc(-c2ccnc3[nH]ncc23)n1
Ans: < 2800 nM

Q: Field entry: CCC(C#N)(CC)c1csc(-c2ccnc3[nH]ncc23)n1
Ans: < 500 nM

Q: Field entry: CCC(C)(CN)c1csc(-c2ccnc3[nH]ncc23)c1 (stereo not shown)
Ans: < 500 nM

====

target_system: PKC delta kinase (Homo sapiens)
assay_info: PKC delta kinase inhibition, coupled-enzyme NADH absorbance assay
particulars: 46 nM PKC delta kinase, 150 μM ATP, 30° C.
readout_type: Ki

Sample records with Ki:
compound="CCC(C#N)n1cc(-c2ccnc3[nH]ncc23)cn1 (stereo not drawn)" reported_measurement="< 2800 nM"
compound=Cc1sc(-c2ccnc3[nH]ncc23)nc1C(C)(C)CN reported_measurement="< 500 nM"
compound="CCC(C)(C#N)c1csc(-c2ccnc3[nH]nc(Cl)c23)n1 (stereo not drawn)" reported_measurement="< 500 nM"
compound="CCC(C)(CN)c1csc(-c2ccnc3[nH]ncc23)n1 (stereo not drawn)" reported_measurement="< 500 nM"
compound=CC(C)(CN)c1csc(-c2ccnc3[nH]ncc23)n1 reported_measurement="< 500 nM"

Q: Request the reported Ki associated with CC1(CN)CCCc2sc(-c3ccnc4[nH]ncc34)nc21 (stereo not drawn)
Ans: < 2800 nM

Q: Field entry: CCC(CN)n1cc(-c2ccnc3[nH]ncc23)cn1 (stereo not drawn)
Ans: < 2800 nM

Q: Field entry: CCC(CN)c1csc(-c2ccnc3[nH]ncc23)n1 (stereo not drawn)
Ans: < 500 nM

Q: Field entry: CCC(C)(CN)c1csc(-c2ccnc3[nH]ncc23)c1 (stereo not drawn)
Ans: < 500 nM

Q: Field entry: N#CCc1csc(-c2ccnc3[nH]ncc23)n1
Ans: < 2800 nM

Q: Field entry: CC(C)(C#N)c1csc(-c2ccnc3[nH]ncc23)n1
Ans: < 500 nM

Q: Field entry: CCC(C#N)c1csc(-c2ccnc3[nH]ncc23)n1 (stereo not drawn)
Ans: < 500 nM
